System: HS 578T breast
ASSAY INFO: NCI-60 one-dose screen, 48 h (100 = growth as untreated, 0 = no growth, -100 = all killed)
REPORTED CONDITIONS: 10 µM unless noted
About 83,000 compounds went through this panel and 20% of them were active in at least one assay; those are over-represented in the sample as a whole.
growth less than 90% is class 1; growth greater than or equal to 90% is class 0.

> print(dat)
                                   compound    group
1  O=C1c2ccccc2CCC12OC2c1cn(-c2ccccc2)nc1-c1ccc(Cl)cc1 (centres undefined)  class 0
2  CCCOC(=O)N[C@H]1CCc2cc(OC)c(OC)c(OC)c2-c2ccc(SC)c(=O)cc21  class 1
3         NC(=NCCCOc1ccc(F)cc1)Nc1ccc(I)cc1  class 1
4  COc1ccc(C(=O)C2C(C#N)C(C#N)C3C=Cc4ccccc4N32)cc1 (centres undefined)  class 1
5  COc1ccc(C(=O)Nc2cccc(C3CCc4c(cc(OC)c(OC)c4OC)O3)c2)cc1 (centres undefined)  class 1
6  O=C(c1nc2ccccc2[nH]1)C1C(c2ccc(Br)cc2)C2CC3CCCC[C@H]3N2[C@@]12C(=O)Nc1cc(Cl)ccc12 (some centres undefined)  class 1
7  CC(=O)[C@@H]1CC[C@]2(CO)CC[C@]3(C)[C@H](CC[C@@H]4[C@@]5(C)CCCNC(C)(C)[C@@H]5CC[C@]43C)[C@@H]12  class 0
8  COc1ccc(CNCCN2C(=O)c3ccc4c5c(ccc(c35)C2=O)C(=O)N(CCNCc2ccc(OC)c(OC)c2OC)C4=O)c(OC)c1OC  class 1
